The origin of these recorded values is the supplement of paper PMC5579334.

- System: S1507-2
- protocolDescription: relative IC50 (inflection point of fitted dose-response curve, CellTiter-Glo viability, 72 h; top asymptote may be below 50% inhibition); higher = less potent
Assign relative IC50 to each entry below.

Known relative IC50 results, listed for orientation:
compound: O=P1(N(CCCl)CCCl)NCCCO1 (stereo unspecified) [Cyclophosphamide]
relative IC50: > 40 µM
--
compound: CCNC(=O)CCC/C=C\C[C@@H]1[C@@H](/C=C/[C@@H](O)CCc2ccccc2)[C@H](O)C[C@@H]1O
relative IC50: > 5.5 µM
--
compound: CS(=O)(=O)OCCCCOS(C)(=O)=O
relative IC50: > 100 µM

For every listed record, write down its relative IC50.
1. Cc1cn(-c2cc(NC(=O)c3ccc(C)c(Nc4nccc(-c5cccnc5)n4)c3)cc(C(F)(F)F)c2)cn1
2. CC(C)Cn1cnc2c(N)nc3ccccc3c21
3. Cc1cc2c(F)c(Oc3ncnn4cc(OC[C@@H](C)O)c(C)c34)ccc2[nH]1

Response:
1: > 10 µM; 2: > 2.5 µM; 3: > 1 µM

* * *

- System: HS-PSS
- protocolDescription: relative IC50 (inflection point of fitted dose-response curve, CellTiter-Glo viability, 72 h; top asymptote may be below 50% inhibition); higher = less potent
endpointLabel: relative IC50

Known relative IC50 results, listed for orientation:
molecule: C[C@]12C=CC(=O)C=C1CC[C@@H]1[C@@H]2C(=O)C[C@@]2(C)[C@H]1CC[C@]2(O)C(=O)CO
result: > 10 µM

molecule: OC(CC1c2ccccc2-c2cncn21)C1CCCCC1 (stereo not drawn)
result: > 10 µM

Let's switch to this molecule now.
Prompt: Kindly state the measured relative IC50 obtained for CC(C)[C@H]1C(=O)N[C@@H](CCCNC(=N)N)C(=O)NCC(=O)N[C@@H](CC(=O)O)C(=O)N[C@H](Cc2ccccc2)C(=O)N1C [Cilengitide] with HS-PSS.
Response: > 10 µM

* * *

- System: HS-PSS
- protocolDescription: relative IC50 (inflection point of fitted dose-response curve, CellTiter-Glo viability, 72 h; top asymptote may be below 50% inhibition); higher = less potent
Assign relative IC50 to each entry below.
Give bare numbers, in nM.

Known relative IC50 results, listed for orientation:
compound: CNC(=O)c1cccc(-c2ccc3c(N4CCOC[C@@H]4C)nc(N4CCOC[C@@H]4C)nc3n2)c1 [AZD2014]
relative IC50 / nM: 505
--
compound: CN1CCN(c2cc(C(=O)Nc3ccc4c(c3)-c3c(c(C(N)=O)nn3-c3ccc(F)cc3)CC4)c(Cl)cn2)CC1 [PHA 408]
relative IC50 / nM: 2400

Let's switch to this compound now.
Prompt: What does the data say about its relative IC50? Entry: `CC(C)CC(=O)Nc1n[nH]c2c1CN(C(=O)C1CCN(C)CC1)C2(C)C`
Response: 604

* * *

Assign drug sensitivity score to each entry below.
- Tested on: HS-Sch-2
- protocolDescription: drug sensitivity score (DSS, CellTiter-Glo viability, 72 h) (DSS (dimensionless)); higher = more sensitive; extreme values may be limits of the assay
One number for each entry.

compound: COc1ccc2c(OCc3nnc4ccc(-c5ccccc5)nn34)ccnc2c1 [AMG-208] (max concentration tested 2500 nM)
drug sensitivity score: 0

compound: O=c1[nH]c(C2CCCN2)nc2c1oc1ccc(Cl)cc12 (stereo not drawn) (max concentration tested 10000 nM)
drug sensitivity score: 2.7

Prompt: What does the data say about its drug sensitivity score? Entry: CN1CCN(c2ccc3nc(-c4c(N)c5c(F)cccc5[nH]c4=O)[nH]c3c2)CC1 [Dovitinib] (max concentration tested 10000 nM)
Response: 0.84
